The measurements presented in this section are drawn from the supplement of paper PMC13380429.

Tested on: U2OS
test details: cell viability relative to DMSO; higher = less toxic
condition info: 72 h; 10000 nM
Task for the reader: assign each of the following molecules its reported cell viability.
Mention the unit after the number when you answer.

As a guide, the following entries are already answered.
molecule	target or system	outcome measure	assay value
C[N+](C)(CCOc1ccccc1)Cc1ccccc1 [bephenium-hydroxynaphthoate]	U2OS	cell viability	102%
CC(C)[C@H](CO)Nc1nc(Nc2ccc(C(=O)O)c(Cl)c2)c2ncn(C(C)C)c2n1 [purvalanol-B]	U2OS	cell viability	107%

List reported cell viability for each of these molecules:
1. O=[N+]([O-])c1cc([N+](=O)[O-])c(/C=C/c2ccc(Cl)c(Cl)c2)cc1/C=C/c1ccc(Cl)c(Cl)c1
2. CCC(=O)OCC(=O)[C@@]1(OC(=O)CC)[C@@H](C)C[C@H]2[C@@H]3CCC4=CC(=O)C=C[C@]4(C)[C@@]3(Cl)[C@@H](O)C[C@@]21C [beclomethasone-dipropionate]
3. Cc1ccc(NC(=O)CCCCCC(=O)Nc2ccccc2N)cc1 [TC-H-106]
4. CON(C)C(=O)[C@H](O)[C@H](Cc1ccccc1)NC(=O)c1cc2cc(Cl)ccc2[nH]1
5. Cn1cncc1[C@@](N)(c1ccc(Cl)cc1)c1ccc2c(c1)c(-c1cccc(Cl)c1)cc(=O)n2C [tipifarnib]

Output line:
1: 94.1%; 2: 97.2%; 3: 80.3%; 4: 95.9%; 5: 53.9%
